assay: growth inhibition of PfHsp90-dependent yeast, primary screen, antimalarial PfHsp90 inhibitor project, S. cerevisiae, BacTiter-Glo luminescence (AID 504594);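 note: higher value means stronger growth inhibition because the sign is flipped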; details: S. cerevisiae expressing PfHsp90, BacTiter-Glo growth, 48 h; at 9.4 µM; stronger effect = higher value
The campaign covered roughly 2,000 compounds. Fewer than 10 were called active. A selection follows.
Respond with Yes for growth inhibition values of -10% and above, No for values below.

{"columns": ["COMPOUND", "CAT"],
 "data": [
  ["COCc1cc(=O)[nH]c(/N=C(\\N)Nc2ccc(Oc3ccccc3)cc2)n1", "No"],
  ["CCc1cc2c(=O)c(-c3nc(C)cs3)c(CCCC(=O)O)oc2cc1O", "Yes"],
  ["COC(=O)[C@@H](N)CS", "Yes"],
  ["COc1ccc(C(=O)Nc2ncc3c(n2)CC(C)CC3=O)cc1 (configuration not stated)", "No"],
  ["CCn1c(SCC(=O)c2ccccc2)nc2ccccc2c1=O", "No"]
]}

Record O=C1c2ccccc2C(=O)N1/N=C/c1ccc(Oc2ccc([N+](=O)[O-])cn2)cc1 ; criterion: growth inhibition no lower than -10%. Met?
Yes

Now give it for CS(=O)c1ccccc1O (configuration not stated) too.
Yes

These measurements were taken from PubChem BioAssay AID504594.
